// data source = the Immune Epitope Database (IEDB)

# systemName: HLA-A*02:06
# procedureSummary: IEDB peptide-MHC binding, purified MHC/competitive/radioactivity; filed as Kd, often an IC50 or EC50 that approximates it; bounds were set here for any values at or beyond the usual limits of such assays
# measurementParameters: source organism: Dengue virus 4 Philippines/H241/1956
measure: pKd
Lab note: report pKd as minus log10 of the concentration in molar units, number only.

Input line: Consider the sequence shown here: `YMPTVIEEL` What is its recorded pKd?
Output line: 7.33

====

# systemName: HLA-B*15:42
# procedureSummary: IEDB peptide-MHC binding, purified MHC/competitive/fluorescence; filed as Kd, often an IC50 or EC50 that approximates it; bounds were set here for any values at or beyond the usual limits of such assays
# measurementParameters: source organism: Zaire ebolavirus
pKd: −log10 of the molar value.
measure: pKd

Input line: Consider the sequence shown here: `TTIGEWAFW` What is its recorded pKd?
Output line: ≤ 5.30

====

# systemName: HLA-A*26:02
# procedureSummary: IEDB peptide-MHC binding, purified MHC/direct/fluorescence; filed as Kd, often an IC50 or EC50 that approximates it; bounds were set here for any values at or beyond the usual limits of such assays
# measurementParameters: source organism: Ravn virus - Ravn, Kenya, 1987
measure: Kd

Input line: Consider the sequence shown here: `AEALLADGL` What is its recorded Kd?
Output line: ≥ 20 µM

====

# systemName: HLA-A*11:01
# procedureSummary: IEDB peptide-MHC binding, purified MHC/direct/fluorescence; filed as Kd, often an IC50 or EC50 that approximates it; bounds were set here for any values at or beyond the usual limits of such assays
# measurementParameters: source organism: Vibrio vulnificus YJ016
measure: pKd
Lab note: report pKd as minus log10 of the concentration in molar units, number only.

Input line: Consider the sequence shown here: `ATGFPFFDR` What is its recorded pKd?
Output line: 8.96

====

# systemName: HLA-B*18:01
# procedureSummary: IEDB peptide-MHC binding, purified MHC/competitive/fluorescence; filed as Kd, often an IC50 or EC50 that approximates it; bounds were set here for any values at or beyond the usual limits of such assays
# measurementParameters: source organism: Escherichia coli O139:H28 str. E24377A
pKd: −log10 of the molar value.
measure: pKd

Input line: Consider the sequence shown here: `SIPFGLMSA` What is its recorded pKd?
Output line: ≤ 4.70

====

# systemName: HLA-A*68:23
# procedureSummary: IEDB peptide-MHC binding, purified MHC/competitive/fluorescence; filed as Kd, often an IC50 or EC50 that approximates it; bounds were set here for any values at or beyond the usual limits of such assays
# measurementParameters: source organism: dengue virus type 4
measure: Kd (nM)
Supply the numeric figure in nM, leaving out any unit text.

Input line: Consider the sequence shown here: `STMPLVMAW` What is its recorded Kd?
Output line: 0.6

====

# systemName: HLA-A*26:03
# procedureSummary: IEDB peptide-MHC binding, purified MHC/competitive/fluorescence; filed as Kd, often an IC50 or EC50 that approximates it; bounds were set here for any values at or beyond the usual limits of such assays
# measurementParameters: source organism: Variola virus
measure: Kd

Input line: Consider the sequence shown here: `RVFDKADGK` What is its recorded Kd?
Output line: ≥ 20 µM

====

# systemName: HLA-B*15:01
# procedureSummary: IEDB peptide-MHC binding, purified MHC/competitive/fluorescence; filed as Kd, often an IC50 or EC50 that approximates it; bounds were set here for any values at or beyond the usual limits of such assays
# measurementParameters: source organism: Vibrio parahaemolyticus K5030
measure: Kd

Input line: Consider the sequence shown here: `NSSYWRQGY` What is its recorded Kd?
Output line: ≥ 20 µM
